Values from patent US20120316071A1

- system-tested: T1, rHuman IGF-1 sR, (IGF-1 sR), CF (R&D Systems Cat#391-GR) (human, UniProt P08069 31-932)
- T1 construct: Bought recombinant soluble receptor; The column head prints only 'IGF-1'; also called insulin-like growth factor-1 soluble receptor
- test-summary: ECL multispot (MSD), antigen spotted, Fab in solution;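 also: purified Fab incubated 1 h at 20 °C on antigen-spotted wells, bound Fab detected via TAG detection antibody, ECL compared with each well's blank, ratio of 4 or above scored as hit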
Field: ECL signal. Provide a value for each of the binders that follow.
// return just the number, without any unit appended

Enquiry: Reported ECL signal, binder Fab VH1-46_IGHD6-6*01_IGHJ1*01 S102A/S103P/S104F/H111F (APFF) & L6_IGKJ1*01 S28E (Fab, V domains shown, Fab; VH cloned into Plasmid A (CH1, His6 and Flag tags) and VL into Plasmid C (kappa CL); also called APFF / S28E) VH: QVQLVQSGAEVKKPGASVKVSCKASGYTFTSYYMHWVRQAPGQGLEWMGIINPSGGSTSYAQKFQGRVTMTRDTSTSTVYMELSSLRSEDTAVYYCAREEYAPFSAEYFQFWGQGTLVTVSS VL: EIVLTQSPATLSLSPGERATLSCRASQEVSSYLAWYQQKPGQAPRLLIYDASNRATGIPARFSGSGSGTDFTLTISSLEPEDFAVYYCQQRSNWPPWTFGQGTKVEIKR : ____
Return: 361

Enquiry: Fill blank: measured ECL signal of the binder Fab VH1-46_IGHD6-6*01_IGHJ1*01 S102A/S103P/S104F/H111F (APFF) & L6_IGKJ1*01 S28N (Fab, V domains shown, Fab; VH cloned into Plasmid A (CH1, His6 and Flag tags) and VL into Plasmid C (kappa CL); also called APFF / S28N) VH: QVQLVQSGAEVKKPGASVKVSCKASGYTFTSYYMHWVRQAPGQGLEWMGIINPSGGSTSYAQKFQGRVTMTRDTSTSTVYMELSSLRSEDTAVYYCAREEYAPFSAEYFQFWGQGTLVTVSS VL: EIVLTQSPATLSLSPGERATLSCRASQNVSSYLAWYQQKPGQAPRLLIYDASNRATGIPARFSGSGSGTDFTLTISSLEPEDFAVYYCQQRSNWPPWTFGQGTKVEIKR is ____.
Return: 331

Enquiry: Look up ECL signal for this binder: Fab VH1-46_IGHD6-6*01_IGHJ1*01 S102A/S103P/S104F/H111F (APFF) & L6_IGKJ1*01 S28M (Fab, V domains shown, Fab; VH cloned into Plasmid A (CH1, His6 and Flag tags) and VL into Plasmid C (kappa CL); also called APFF / S28M) VH: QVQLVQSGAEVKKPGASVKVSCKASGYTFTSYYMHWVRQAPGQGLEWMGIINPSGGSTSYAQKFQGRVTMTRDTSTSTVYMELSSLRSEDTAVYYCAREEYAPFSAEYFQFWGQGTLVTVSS VL: EIVLTQSPATLSLSPGERATLSCRASQMVSSYLAWYQQKPGQAPRLLIYDASNRATGIPARFSGSGSGTDFTLTISSLEPEDFAVYYCQQRSNWPPWTFGQGTKVEIKR
Return: 341
